system: SK-MEL-28 melanoma; assay: NCI tumour cell line growth inhibition, 48 h
ENDPOINT: TGI

# example entries with known answers
* COc1cc2c3c(n(CCCN=[N+]=[N-])c(=O)c2cc1OC)-c1ccc([N+](=O)[O-])cc1C3=O | > 100 µM
* CCCCCCCCCCC/C=C(/C(=O)CCCO[Si](C)(C)C(C)(C)C)C(=O)OC | > 100 µM
* Oc1ccc(N=Nc2ccc(Br)cc2)c(O)c1 | > 100 µM
* NC1CCN(c2nc3ccccc3c3c2CCCC3)CC1 | 10.6 µM

Which TGI value is on record for `O=C(Nc1ccc(Cl)c(C(F)(F)F)c1)Nc1ccc(-c2cccnc2)cc1N1CCC(CO)CC1` ?
5.71 µM

# lookup: TGI of `O=C1c2ccccc2CC12Cc1cc3c(cc1C2)CCC3`
> 100 µM

# query: TGI of entry Cc1cc(C)c2c(=O)n(CC(O)CN(Cc3ccccc3)CC(O)Cn3sc4nc(C)cc(C)c4c3=O)sc2n1 (centres undefined)
74.1 µM

Item under review: `OCc1ccc(-c2nc(-c3ccc4c(c3)OCO4)c(-c3ccccn3)[nH]2)cc1` . Reported TGI?
> 25 µM

I have this molecule here, `Cc1nc2ccccc2c(=O)n1/N=C(\N=Nc1ccccc1)c1ccccc1Cl` , and I need its recorded TGI.
> 100 µM

====

Recorded TGI values for a group of compounds are listed next.
system: ACHN renal; test: NCI tumour cell line growth inhibition, 48 h

Observe how each entry below is paired with its result.
• c1ccc(/C(=N\Nc2nc3ccccc3[nH]2)c2ccccn2)cc1 = 2 µM
• CCCCCN(CCCCC)CCC[C@@H](C)[C@H]1CC[C@H]2[C@@H]3[C@H](OCCCN)C[C@@H]4C[C@H](OCCCN)CC[C@]4(C)[C@H]3C[C@H](OCCCN)[C@]12C = 35 µM
• COC(=O)c1c(O)ccc2c1c1c(n2CCc2ccc(OC)c(OC)c2)C(=O)c2ccccc2C1=O = 35.9 µM
• N#C/C(c1nc2ccccc2[nH]1)=c1\s/c(=C/c2ccccc2)c(=O)n1-c1ccccc1 = > 100 µM
• Cc1cc(C)n(-c2nc(-n3nc(C)cc3C)nc(-n3nc(C)cc3C)n2)n1 = > 100 µM

State its TGI on ACHN renal: `NC1CCN(c2nc3ccccc3c3c2CCCC3)CC1`
22.4 µM

Query for ACHN renal: what TGI does the record show for `CCOc1ccc(N(CC(=O)N2CC(=O)Nc3cc(C)c(C)cc32)C(C)=O)cc1` ?
> 100 µM

API: value(readout= TGI, system= ACHN renal, query= COc1cccc(C2=NC(C(C)C)CO2)c1OC (centres undefined) )
> 100 µM

Lab request: please report TGI under test system ACHN renal for `Cc1ccc(S(=O)(=O)N(CCN)c2cc3c4c(c2)Oc2cccc5c2C4c2c(cccc2O3)O5)cc1`
> 100 µM

Request: TGI, test system ACHN renal, entry `Cc1c(-c2ccccc2)c(C#N)c2nnn(-c3ccc(Cl)cc3)c(=O)n12`
> 100 µM

====

test system: OVCAR-3 ovarian; assay: NCI tumour cell line growth inhibition, 48 h
ENDPOINT: TGI

The cases that follow already have their TGI on record.
- CC(NNC(=O)c1ccncc1)c1ccccc1 (stereo not drawn): > 100 µM
- C=CCCn1nc(-c2ccccc2)oc1=O: > 100 µM

Note: attention shifts to another entry.
Looking for the measured TGI of NC(=O)c1ncn(C2C=CC(CP(=O)(O)O)C2)c1N (stereo not drawn) , can you help?
> 100 µM

====

test system: UACC-257 melanoma; assay: NCI tumour cell line growth inhibition, 48 h
Each entry below lists one item and its recorded GI50 value.

Some solved entries appear below for comparison.
- COc1cccc(S(=O)(=O)NC2=NCCN2C(=S)SN2CCn3c2nsc3=S)c1: 31.5 µM
- c1cc[c]([Ge]([O]c2cccc3cccnc23)([c]2ccccc2)[c]2ccccc2)cc1: 3.94 µM
- CCc1cc2c(c(OCC(F)(F)F)c(C(=O)NC3CCN(C(=O)CO)CC3)n2C)c(=O)n1CC(=O)c1ccccc1: > 82.2 µM
- O=S(O)O.O=S(O)O.[Co].[NH2-].[NH2-].[NH2-].[NH2-]: > 100 µM

If you can, please state the reported GI50 value of `ClCc1ccccc1Cn1cnc2nc(Cl)nc(Cl)c21` .
1.6 µM

What value of measured GI50 is listed for CC[C@@]1(O)CC(OC2CC(N3CCOCC3)C(O)C(C)O2)c2c(O)c3c(c(O)c2[C@H]1O)C(=O)c1cccc(O)c1C3=O (stereo partly drawn) ?
0.108 µM

// query GI50 value for entry COc1cccc2c1C(=O)c1c(O)c3c(c(O)c1C2=O)C[C@](O)(C(=O)CO)C[C@H]3O[C@@H]1C[C@@H](NC(=O)CCCN(C)C2(c3ccc(F)cc3)CC3CCC2C3)[C@H](O)[C@@H](C)O1 (stereo partly drawn)
0.984 µM

Param item = `Cn1cnc([N+](=O)[O-])c1S(=O)(=O)Oc1ccc(Cl)cc1` ; retrieve measured GI50.
3.59 µM

State the recorded GI50 for this entry: `Cc1nnn(C)c1-c1cnc2c3ccc(C(C)(C)O)cc3n([C@H](c3ccccc3)C3CCOCC3)c2c1`
< 0.0132 µM

Suppose we examine the compound `CCOC(=O)c1ccc(N2NC(=O)/C(=C/c3ccc([N+](=O)[O-])o3)C2=O)cc1` ; what GI50 value has been reported?
16 µM

Name the reported GI50 value associated with the compound `COc1cccc(/C=N\NC(=O)c2ccncc2)c1O`
5 µM

Need GI50, item `O=C1OC2(c3ccc(O)cc3Oc3cc(O)ccc32)c2cccc3cccc1c23`
23.6 µM

For the compound shown here, `CCCN(CCC)c1ccc(/C=N/NC(=O)c2cccnc2)c(C)c1` , give the reported GI50.
12.3 µM

====

tested on: NCI-H460 lung; test: NCI tumour cell line growth inhibition, 48 h
Entries and their TGI values follow.

Answered cases to consult:
* ClCc1ccccc1Cn1cnc2nc(Cl)nc(Cl)c21 | > 24.3 µM
* COc1ccc(C)c2sc(N(Cc3cccnc3)C(=O)c3ccc(C#N)cc3)nc12 | > 100 µM
* C[N+]1(C(CO)Cc2c[nH]c3ccccc23)Cc2ccccc2C1 (stereo unspecified) | > 100 µM
* N#Cc1c(-c2ccc([N+](=O)[O-])cc2)c2c([nH]c1=O)-c1ccccc1CCC2 | > 100 µM
* O=C1CN=C(c2ccc[nH]2)c2cc(Cl)ccc2N1 | > 100 µM

Now consider a different compound.
Fill in the blank: the reported TGI of `Cc1cccc(N=Nc2c(C)nn(C(=O)CC(=O)Nc3ccc(Cl)cc3)c2C)c1` is ____.
> 100 µM

====

Measured TGI accompanies every entry in the list below.
test system: UACC-62 melanoma; experiment: NCI tumour cell line growth inhibition, 48 h

// below: answered molecules
* CC(=O)C1C(=O)C(=O)N(c2ccc([N+](=O)[O-])cc2[N+](=O)[O-])C1=O (stereo unspecified) | > 100 µM
* O=S1Nc2cccc(C(F)(F)F)c2S1 (stereo unspecified) | > 100 µM

Param readout = TGI; param system = UACC-62 melanoma; param query = CCOC(=O)C1CC(=O)C=C2CCCCC21 (stereo unspecified) ; response: value
> 100 µM

Form: Entry = C[C@@H]1CC[C@@]2(C)OC(c3ccccc3)[C@H](CO)N2C1=O (stereo partly specified) | System = UACC-62 melanoma | TGI = ____
> 100 µM

Request - read-out TGI | tested on UACC-62 melanoma | molecule `CCc1cc2c(c(OCC(F)(F)F)c(C(=O)NC3CCN(C(=O)CO)CC3)n2C)c(=O)n1CC(=O)c1ccccc1`
> 100 µM

Reported TGI for UACC-62 melanoma, given C/C(=C/CC[C@](C)(OC1OC(CO)C(O)C(O)C1O)[C@H]1CC[C@]2(C)[C@@H]1CC[C@@H]1[C@@]3(C)CC[C@H](O)C(C)(C)[C@@H]3C[C@H](O)[C@]12CO)CO (stereo partly specified) ?
> 100 µM

Fill in the recorded TGI for this molecule, with UACC-62 melanoma as test system: `Cc1cccc(N=Nc2c(C)nn(C(=O)CC(=O)Nc3ccc(Cl)cc3)c2C)c1`
> 100 µM

Can you look up TGI on UACC-62 melanoma for `O=S(O)O.O=S(O)O.[Co].[NH2-].[NH2-].[NH2-].[NH2-]` ?
> 100 µM

API: value(readout= TGI, system= UACC-62 melanoma, query= CC(C)CNC1=NCC(C)S1 (stereo unspecified) )
> 100 µM

Form field - read-out: TGI; system: UACC-62 melanoma; submitted item: Fc1cc2nc3n(c2cc1F)C(c1c(F)cccc1F)SC3 (stereo unspecified)
> 100 µM

Query the reported TGI for UACC-62 melanoma; item: O=C(O)CCC(NC(=O)c1ccc(Oc2nc3ccccc3nc2C(=O)O)cc1)C(=O)O (stereo unspecified)
> 100 µM
